B1: LINE1-full (parent)
chain: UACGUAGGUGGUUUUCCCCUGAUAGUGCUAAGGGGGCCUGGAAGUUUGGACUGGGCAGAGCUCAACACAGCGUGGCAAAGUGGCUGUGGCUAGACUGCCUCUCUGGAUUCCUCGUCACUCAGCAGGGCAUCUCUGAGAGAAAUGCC

Variants of: B1
assay remarks: self-cleavage, relative activity (ratio to wild type); higher = more cleavage; in vitro, sequencing; the parent is a self-cleaving ribozyme
Label 1 for high-side self-cleavage (at or above 1) and 0 for low-side self-cleavage (below it).

{"sequence change": "U14A A140U", "assigned class": 1}
{"sequence change": "A107G U109C", "assigned class": 1}
{"sequence change": "C71U U102C", "assigned class": 0}
{"sequence change": "U87G A140U", "assigned class": 0}
{"sequence change": "A6C C113U", "assigned class": 1}
{"sequence change": "U73C C133U", "assigned class": 1}
{"sequence change": "U104C U112G", "assigned class": 1}
{"sequence change": "C16U A79U", "assigned class": 1}
{"sequence change": "U47C U87A", "assigned class": 0}
{"sequence change": "U115A A129G", "assigned class": 1}
{"sequence change": "A67U A142G", "assigned class": 0}
{"sequence change": "U81A U134A", "assigned class": 1}
{"sequence change": "A22G G33A", "assigned class": 0}
{"sequence change": "A78C A136G", "assigned class": 1}
{"sequence change": "A6U G55U", "assigned class": 0}
{"sequence change": "U87A U109C", "assigned class": 0}
{"sequence change": "G70A A138C", "assigned class": 0}
{"sequence change": "U102C C145U", "assigned class": 1}
{"sequence change": "A65G U112C", "assigned class": 0}
{"sequence change": "G60A U143C", "assigned class": 0}
{"sequence change": "U39C A138G", "assigned class": 1}
{"sequence change": "G33A A67G", "assigned class": 0}
{"sequence change": "G80C U132C", "assigned class": 1}
{"sequence change": "U9A C18G", "assigned class": 1}
{"sequence change": "C17A G35A", "assigned class": 0}
{"sequence change": "A117U A138G", "assigned class": 1}
{"sequence change": "A30G C146U", "assigned class": 0}
{"sequence change": "U12C G40U", "assigned class": 1}
{"sequence change": "U12G A64C", "assigned class": 0}
{"sequence change": "G48A A94U", "assigned class": 0}
{"sequence change": "G70U A79G", "assigned class": 0}
{"sequence change": "U12A G32A", "assigned class": 1}
{"sequence change": "U115C G144A", "assigned class": 1}
{"sequence change": "U13C G106A", "assigned class": 1}
{"sequence change": "A30C U46C", "assigned class": 1}
{"sequence change": "U104A U143C", "assigned class": 1}
{"sequence change": "A77U U119C", "assigned class": 1}
{"sequence change": "C3U C123U", "assigned class": 0}
{"sequence change": "U14C C146U", "assigned class": 1}
{"sequence change": "G36C U39G", "assigned class": 0}
{"sequence change": "A6U A92G", "assigned class": 0}
{"sequence change": "G33U U96C", "assigned class": 0}
{"sequence change": "U62A U112C", "assigned class": 0}
{"sequence change": "A121C A129G", "assigned class": 1}
{"sequence change": "A64C A142U", "assigned class": 0}
{"sequence change": "U26G C110U", "assigned class": 1}
{"sequence change": "A2C A141G", "assigned class": 0}
{"sequence change": "U9G A77U", "assigned class": 1}
{"sequence change": "C118A", "assigned class": 1}
{"sequence change": "A65G U100A", "assigned class": 0}
{"sequence change": "U52A U73A", "assigned class": 1}
{"sequence change": "U20C U46C", "assigned class": 1}
{"sequence change": "U52A A129U", "assigned class": 1}
{"sequence change": "U52C G60A", "assigned class": 0}
{"sequence change": "U46A U96C", "assigned class": 0}
{"sequence change": "U20C A142C", "assigned class": 1}
{"sequence change": "C18A U119C", "assigned class": 1}
{"sequence change": "U23C C99U", "assigned class": 0}
{"sequence change": "A67C G72U", "assigned class": 0}
{"sequence change": "C61U A124U", "assigned class": 0}
{"sequence change": "U62G U115C", "assigned class": 0}
{"sequence change": "A24C U47C", "assigned class": 1}
{"sequence change": "U14G U96C", "assigned class": 0}
{"sequence change": "A30C A69G", "assigned class": 0}
{"sequence change": "A77C U115A", "assigned class": 1}
{"sequence change": "U12G G32A", "assigned class": 0}
{"sequence change": "U9A C90A", "assigned class": 0}
{"sequence change": "U73A G126A", "assigned class": 0}
{"sequence change": "U62A U102C", "assigned class": 0}
{"sequence change": "U26C G89A", "assigned class": 0}
{"sequence change": "A2G U47C", "assigned class": 0}
{"sequence change": "A64G A129U", "assigned class": 0}
{"sequence change": "U87A U130A", "assigned class": 0}
{"sequence change": "U20C U23C", "assigned class": 1}
{"sequence change": "A57U U85A", "assigned class": 0}
{"sequence change": "C101U A138G", "assigned class": 1}
{"sequence change": "C63A A124U", "assigned class": 0}
{"sequence change": "U52G A59G", "assigned class": 0}
{"sequence change": "U20A U109A", "assigned class": 0}
{"sequence change": "U91G", "assigned class": 0}
{"sequence change": "C19U A77G", "assigned class": 1}
{"sequence change": "G10A", "assigned class": 1}
{"sequence change": "U15C U102C", "assigned class": 1}
{"sequence change": "G7U", "assigned class": 1}
{"sequence change": "G7A A124C", "assigned class": 1}
{"sequence change": "U85C G97U", "assigned class": 0}
{"sequence change": "C3U U12G", "assigned class": 1}
{"sequence change": "A6U U115C", "assigned class": 1}
{"sequence change": "U73G A140G", "assigned class": 1}
{"sequence change": "G7C A140G", "assigned class": 1}
{"sequence change": "U12A G35C", "assigned class": 1}

Each recorded value in this set is attributed to the RNAGym collection of RNA variant scans (doi:10.7554/elife.90254).
